test-system: Human recombinant PDE10A (hPDE10A) (Homo sapiens, UniProt Q9Y233)
Construct: His tag (inferred from metal chelate purification); made in house; host or cells: Sf9 insect cells (baculovirus)
Sequence (Q9Y233 267-1055): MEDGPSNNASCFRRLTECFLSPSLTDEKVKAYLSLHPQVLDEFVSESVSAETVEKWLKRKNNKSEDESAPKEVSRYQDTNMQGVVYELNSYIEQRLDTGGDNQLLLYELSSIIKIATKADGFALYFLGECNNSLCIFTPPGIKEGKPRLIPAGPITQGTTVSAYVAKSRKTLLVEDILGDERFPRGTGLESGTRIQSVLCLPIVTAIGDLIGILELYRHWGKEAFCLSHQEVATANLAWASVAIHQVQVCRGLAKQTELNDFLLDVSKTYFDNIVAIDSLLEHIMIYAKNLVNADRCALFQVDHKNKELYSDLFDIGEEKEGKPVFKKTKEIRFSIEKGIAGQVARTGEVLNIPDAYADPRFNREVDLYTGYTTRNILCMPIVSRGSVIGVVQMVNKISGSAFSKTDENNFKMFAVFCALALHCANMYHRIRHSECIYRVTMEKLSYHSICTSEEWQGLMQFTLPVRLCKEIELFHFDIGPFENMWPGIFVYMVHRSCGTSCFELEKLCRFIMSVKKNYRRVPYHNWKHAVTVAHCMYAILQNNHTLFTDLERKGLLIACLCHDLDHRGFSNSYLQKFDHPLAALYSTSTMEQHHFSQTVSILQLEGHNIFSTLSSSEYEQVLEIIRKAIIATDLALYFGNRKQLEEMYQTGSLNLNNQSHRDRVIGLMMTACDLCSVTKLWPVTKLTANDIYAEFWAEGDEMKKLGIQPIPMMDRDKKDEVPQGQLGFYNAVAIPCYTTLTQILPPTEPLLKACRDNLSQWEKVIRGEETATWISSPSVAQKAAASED
assay-summary: In vitro assay PDE10A, human clone (SPA, 3H-cAMP hydrolysis)
Type: biochemical
recorded-conditions: human clone by default (no (r) mark); read-out: hPDE10A2 or rPDE10A2 Emax
endpoint-label: Emax (%)
Response body: numeric value in %, unit text excluded.

• Cc1cc(C(=O)N2CC[C@@H](C)[C@H](c3cc(C(F)F)nc4ncnn34)C2)cc(C)[n+]1[O-] [Compound 402] = 87
• COc1cc(C(=O)N2[C@H]3CC[C@H](c4cc(C(F)F)nc5ncnn45)[C@@H]2CC3)cc(OC)n1 [Compound 301] = 89

Entry Cc1cc(C(=O)N2[C@H]3CC[C@H](c4cc(C(F)F)nc5ncnn45)[C@@H]2CC3)c(F)c(C)n1 [Compound 400] has what Emax?
41

Entry O=C(c1ccc(Cl)c(Cl)c1)N1[C@H]2CC[C@H](c3cc(C(F)F)nc4ncnn34)[C@@H]1CC2 [Compound 356] has what Emax?
92

----------
test-system: Human recombinant PDE10A (hPDE10A) (Homo sapiens, UniProt Q9Y233)
Construct: His tag (inferred from metal chelate purification); made in house; host or cells: Sf9 insect cells (baculovirus)
assay-summary: In vitro assay PDE10A, human clone (SPA, 3H-cAMP hydrolysis)
Assay type: biochemical
recorded-conditions: human clone by default (no (r) mark); read-out: hPDE10A2 or rPDE10A2 pIC50 (converted)
Protocol: Rat recombinant PDE10A (rPDE10A2) was expressed in Sf9 cells using a recombinant rPDE10A baculovirus construct. […] Tested compounds were dissolved and diluted in 100% DMSO to a concentration 100 fold of the final concentration in the assay. […] After sedimentation of the beads during 30 minutes the radioactivity was measured in a Perkin Elmer Topcount scintillation counter and results were expressed as cpm. […]
Below, each entry is listed alongside its reported log10 IC50.
Hi team, quick reminder: these entries are log10 of IC50 (nM).

# example entries with known answers
• O=C(c1cnc2c(Cl)cccc2c1)N1[C@H]2CC[C@H](c3cc(C(F)F)nc4ncnn34)[C@@H]1CC2 [Compound 310] = 2.60
• Cc1cc(C(=O)N2CC[C@@H](C)[C@H](c3cc(C(F)F)nc4ncnn34)C2)cc(C(F)F)n1 [Compound 321] = 2.49

Entry Cc1nc(C)c(C(=O)N2CC[C@@H](C)[C@H](c3cc(C(F)F)nc4ncnn34)C2)s1 [Compound 264] has what log10 IC50?
3.52

Entry Cc1cc([C@@H]2CN(C(=O)c3cc(Cl)ncc3Cl)CC[C@H]2C)n2ncnc2n1 [Compound 271] has what log10 IC50?
2.21

Entry C[C@@H]1CCN(C(=O)c2ccc(C(F)(F)F)nc2Cl)C[C@H]1c1cc(C(F)F)nc2ncnn12 [Compound 242] has what log10 IC50?
3.91

----------
test-system: Human recombinant PDE3A (hPDE3A) (Homo sapiens, UniProt Q14432)
Construct: purchased Scottish Biomedical; host or cells: Sf9 insect cells
Sequence (Q14432 whole entry): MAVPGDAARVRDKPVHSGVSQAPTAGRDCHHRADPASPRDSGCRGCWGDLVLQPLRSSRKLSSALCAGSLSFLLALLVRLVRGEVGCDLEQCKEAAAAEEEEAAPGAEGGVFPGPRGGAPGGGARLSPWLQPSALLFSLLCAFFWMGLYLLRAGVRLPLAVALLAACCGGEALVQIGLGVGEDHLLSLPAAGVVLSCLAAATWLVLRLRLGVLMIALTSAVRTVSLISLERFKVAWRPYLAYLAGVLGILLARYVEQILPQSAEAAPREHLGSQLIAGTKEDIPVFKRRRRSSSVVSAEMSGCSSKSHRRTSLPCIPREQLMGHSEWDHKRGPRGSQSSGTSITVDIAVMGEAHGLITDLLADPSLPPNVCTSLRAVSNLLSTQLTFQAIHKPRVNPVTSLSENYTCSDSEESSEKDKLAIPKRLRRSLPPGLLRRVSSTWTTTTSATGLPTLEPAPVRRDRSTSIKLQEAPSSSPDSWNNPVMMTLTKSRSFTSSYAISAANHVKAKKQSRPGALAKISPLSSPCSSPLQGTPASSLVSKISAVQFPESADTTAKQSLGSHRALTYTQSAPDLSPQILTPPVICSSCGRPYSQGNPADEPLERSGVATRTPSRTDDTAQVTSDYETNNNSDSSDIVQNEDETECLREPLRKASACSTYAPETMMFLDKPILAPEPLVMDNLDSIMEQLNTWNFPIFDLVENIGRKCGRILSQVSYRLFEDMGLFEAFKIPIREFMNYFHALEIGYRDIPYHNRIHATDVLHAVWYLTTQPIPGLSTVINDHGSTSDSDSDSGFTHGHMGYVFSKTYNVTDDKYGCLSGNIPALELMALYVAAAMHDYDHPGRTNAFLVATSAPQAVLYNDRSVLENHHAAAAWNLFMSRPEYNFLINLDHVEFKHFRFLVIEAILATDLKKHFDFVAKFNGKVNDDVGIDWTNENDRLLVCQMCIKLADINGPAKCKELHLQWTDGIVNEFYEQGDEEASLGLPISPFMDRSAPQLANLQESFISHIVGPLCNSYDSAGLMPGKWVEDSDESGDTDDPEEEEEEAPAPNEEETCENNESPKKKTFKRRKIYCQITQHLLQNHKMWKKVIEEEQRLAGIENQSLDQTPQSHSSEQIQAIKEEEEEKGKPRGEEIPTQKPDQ
assay-summary: In vitro assay PDE3A (SPA, 3H-cAMP hydrolysis);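 further: the method names PDE3A and the table heading PDE3B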
Assay type: biochemical
recorded-conditions: read-out: hPDE3B Emax; read-out: Emax
Rule: Emax below 50% gives Satisfied, anything at or above gives Not satisfied.

Sample answers from the record:
- Cc1cnc(Cl)cc1C(=O)N1CC[C@@H](C)[C@H](c2cc(C(F)F)nc3ncnn23)C1: Satisfied
- Cc1cc(C(=O)N2CC[C@@H](C)[C@H](c3cc(C(F)F)nc4ncnn34)C2)cc(C)c1Cl: Not satisfied

Does C[C@@H]1CCN(C(=O)c2cc3ccccc3n2C)C[C@H]1c1cc(C(F)F)nc2ncnn12 have Emax strictly under 50%?
Not satisfied

Does O=C(c1ccnc2ccccc12)N1[C@H]2CC[C@H](c3cc(C(F)F)nc4ncnn34)[C@@H]1CC2 have Emax strictly under 50%?
Satisfied

Does COc1cc(C(=O)N2CC[C@@H](C)[C@H](c3cc(C)nc4ncnn34)C2)c(C(F)(F)F)cn1 have Emax strictly under 50%?
Not satisfied

Does CCCOc1cccnc1C(=O)N1CC[C@@H](C)[C@H](c2cc(C(F)F)nc3ncnn23)C1 have Emax strictly under 50%?
Satisfied

----------
Below, each entry is listed alongside its reported melting point.
Response body: numeric value in °C, unit text excluded.

# example entries with known answers
* Cc1cc(C(=O)N2CC[C@@H](C)[C@H](c3cc(C(F)F)nc4ncnn34)C2)cnc1C | 263.81
* Cc1cc(C(=O)N2CC[C@@H](C)[C@H](c3cc(C(F)F)nc4ncnn34)C2)cc(C(F)F)n1 | 137.5
* COc1cc(C(=O)N2CC[C@@H](C)[C@H](c3cc(C(F)F)nc4ncnn34)C2)cc(C(C)C)n1 | 160.2
* C[C@@H]1CCN(C(=O)c2ccc3ncccc3c2)C[C@H]1c1cc(C(F)F)nc2ncnn12 | 180.27
* C[C@@H]1CCN(C(=O)c2cn(C)c3ccccc23)C[C@H]1c1cc(C(F)F)nc2ncnn12 | 247.48
* Cn1ccc2c(F)c(C(=O)N3[C@H]4CC[C@H](c5cc(C(F)F)nc6ncnn56)[C@@H]3CC4)ccc21 | 220.89

Entry Cc1cc([C@@H]2CN(C(=O)c3cc(C4CC4)ncc3F)CC[C@H]2C)n2ncnc2n1 has what melting point?
153.14

----------
test-system: Human recombinant PDE10A (hPDE10A) (Homo sapiens, UniProt Q9Y233)
Construct: His tag (inferred from metal chelate purification); made in house; host or cells: Sf9 insect cells (baculovirus)
assay-summary: In vitro assay PDE10A, human clone (SPA, 3H-cAMP hydrolysis)
Format: biochemical
recorded-conditions: human clone by default (no (r) mark); read-out: hPDE10A2 or rPDE10A2 pIC50 (converted)
Below, each entry is listed alongside its reported IC50.
Response body: numeric value in nM, unit text excluded.

• Cc1cc(C(=O)N2[C@H]3CC[C@H](c4cc(C(F)F)nc5ncnn45)[C@@H]2CC3)cc(C(F)(F)F)n1 [Compound 286] = 2240
• Cc1nc(C(=O)N2CC[C@@H](C)[C@H](c3cc(C(F)F)nc4ncnn34)C2)c(C)o1 [Compound 252] = 6760
• COc1ccc(C(=O)N2[C@H]3CC[C@H](c4cc(C(F)F)nc5ncnn45)[C@@H]2CC3)cc1Cl [Compound 376] = 309

Entry Cc1nc(C(F)(F)F)cc(C(=O)N2CC[C@@H](C)[C@H](c3cc(C(F)F)nc4ncnn34)C2)c1F [Compound 394] has what IC50?
2240

----------
test-system: Human recombinant PDE2A (hPDE2A) (Homo sapiens)
Construct: His tag (inferred from metal chelate purification); made in house; host or cells: Sf9 insect cells (baculovirus)
Sequence (O00408 whole entry): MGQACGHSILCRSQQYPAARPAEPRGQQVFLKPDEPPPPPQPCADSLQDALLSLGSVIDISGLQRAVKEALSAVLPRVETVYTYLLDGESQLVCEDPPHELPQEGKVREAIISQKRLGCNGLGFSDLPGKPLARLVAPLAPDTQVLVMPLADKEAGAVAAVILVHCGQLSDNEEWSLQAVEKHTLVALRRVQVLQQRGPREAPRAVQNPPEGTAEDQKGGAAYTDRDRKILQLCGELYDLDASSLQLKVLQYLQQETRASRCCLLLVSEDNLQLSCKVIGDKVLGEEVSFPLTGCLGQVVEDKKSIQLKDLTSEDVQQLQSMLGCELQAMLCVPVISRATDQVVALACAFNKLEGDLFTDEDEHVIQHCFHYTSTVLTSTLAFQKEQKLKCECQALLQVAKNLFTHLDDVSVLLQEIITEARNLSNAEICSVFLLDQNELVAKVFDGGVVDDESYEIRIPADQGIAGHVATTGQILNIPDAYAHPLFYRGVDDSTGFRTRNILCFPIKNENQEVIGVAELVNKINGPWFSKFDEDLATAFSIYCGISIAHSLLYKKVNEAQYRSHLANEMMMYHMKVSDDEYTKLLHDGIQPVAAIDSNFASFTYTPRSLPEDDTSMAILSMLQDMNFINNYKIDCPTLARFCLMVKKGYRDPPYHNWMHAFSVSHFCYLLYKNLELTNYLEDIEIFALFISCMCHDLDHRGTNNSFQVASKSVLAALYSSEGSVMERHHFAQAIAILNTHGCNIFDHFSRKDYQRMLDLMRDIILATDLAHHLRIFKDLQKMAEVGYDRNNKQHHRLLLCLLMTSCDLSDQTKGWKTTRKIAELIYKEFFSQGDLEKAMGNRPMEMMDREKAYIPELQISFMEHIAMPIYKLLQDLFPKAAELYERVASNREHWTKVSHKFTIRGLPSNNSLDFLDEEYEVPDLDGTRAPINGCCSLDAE
assay-summary: In vitro assay PDE2A (SPA, 3H-cGMP hydrolysis)
Format: biochemical
recorded-conditions: read-out: hPDE2A pIC50 (converted)
Each record's class is read off its IC50 using these ranges: band A: < 2 nM; band B: ≥ 2 nM and < 60 nM; band C: ≥ 60 nM

Sample answers from the record:
• C[C@@H]1CCN(C(=O)c2cc(C3CC3)ncc2F)C[C@H]1c1cc(C(F)F)nc2ncnn12 = band A
• C[C@@H]1CCN(C(=O)c2cc(F)ccn2)C[C@H]1c1cc(C(F)F)nc2ncnn12 = band C
• COc1cc(C(=O)N2CC[C@@H](C)[C@H](c3cc(C(F)F)nc4ncnn34)C2)nc2ccccc12 = band B
• C[C@@H]1CCN(C(=O)c2ccncn2)C[C@H]1c1cc(C(F)F)nc2ncnn12 = band C

With those in mind, consider the next compound.
Where would Cc1cc(C(=O)N2CC[C@@H](C)[C@H](c3cc(C(F)F)nc4ncnn34)C2)c(F)c(OC2CC2)n1 land among the classes by reported IC50?
band A

----------
test-system: Human recombinant PDE2A (hPDE2A) (Homo sapiens)
Construct: His tag (inferred from metal chelate purification); made in house; host or cells: Sf9 insect cells (baculovirus)
assay-summary: In vitro assay PDE2A (SPA, 3H-cGMP hydrolysis)
Assay type: biochemical
recorded-conditions: read-out: hPDE2A pIC50 (converted)
endpoint-label: IC50 (nM)
Response body: numeric value in nM, unit text excluded.

# example entries with known answers
• C[C@@H]1CCN(C(=O)c2ccc3ncc(F)cc3c2)C[C@H]1c1cc(C(F)F)nc2ncnn12 [Compound 332] = 4.79
• C[C@@H]1CCN(C(=O)c2ccc(Cl)s2)C[C@H]1c1cc(C(F)F)nc2ncnn12 [Compound 180] = 5.01
• C[C@@H]1CCN(C(=O)c2cnc(Br)s2)C[C@H]1c1cc(C(F)F)nc2ncnn12 [Compound 182] = 25.1
• CCc1cc(C(=O)N2CC[C@@H](C)[C@H](c3cc(C(F)F)nc4ncnn34)C2)cc(C)n1 [Compound 80] = 0.794
• C[C@@H]1CCN(C(=O)c2ccc(F)c(F)c2F)C[C@H]1c1cc(C(F)F)nc2ncnn12 [Compound 245] = 123

Given the entry COc1cc(C(=O)N2CC[C@@H](C)[C@H](c3cc(C(F)F)nc4ncnn34)C2)cc(C)n1 [Compound 110] , what IC50 was observed with Human recombinant PDE2A (hPDE2A) (Homo sapiens)?
1.32

Given the entry C[C@@H]1CCN(C(=O)c2ccc(F)c(C(F)F)c2)C[C@H]1c1cc(C(F)F)nc2ncnn12 [Compound 191] , what IC50 was observed with Human recombinant PDE2A (hPDE2A) (Homo sapiens)?
12.9

Data provenance is patent US10947242B2.
